Molecular target: Neuropeptide S receptor (Homo sapiens)
Test: Confirmation Concentration-Response Assay for Antagonists of the Neuropeptide S Receptor: cAMP Signal Transduction
Settings: CHO-NPSR cells, cAMP TR-FRET, antagonist mode; series mostly up to 22.3 µM
Results filed as inconclusive are left out. Calls of active or inactive are those of the source. Calls come from the whole dose curve; as a rule, active = well fitted inhibition curve with a large enough effect in the main read-out, with a control signal flat; inconclusive = small, poorly fitted or top-dose-only effect, or a change in a side signal; inactive = flat fitted curve, though single readings scatter.
Pick from class 1 for active, class 0 for inactive when you respond.

Use these answered entries as a reference point.
compound	system-name	assigned-label
COc1ccc(N(CC(=O)Nc2cccc(SC)c2)S(C)(=O)=O)cc1Cl	Neuropeptide S receptor (Homo sapiens)	class 0
COc1ccc(O)c(/C=N/Nc2nc(Nc3ccccc3)nc(-n3nc(C)cc3C)n2)c1	Neuropeptide S receptor (Homo sapiens)	class 0

Short answer needed: outcome of this test for COc1ccc(OC)c(C2C(C(=O)Nc3nc4ccccc4s3)=C(C)NC3=C2C(=O)CCC3)c1 (configuration not stated) ? class 1

Returns: the outcome recorded for O=C(Nc1ccc(Oc2c(F)c(F)c(F)c(F)c2F)cc1)OC1CCN2Cc3ccccc3N=C12 (configuration not stated) in this assay. class 1

Tell me the recorded outcome of this test for "Cc1cc(N/N=C/c2ccccc2[N+](=O)[O-])nc(-n2nc(C)cc2C)n1" . class 0

# fetch the recorded call for N=c1c2c(ccn1Cc1ccccc1)Oc1ccc3ccccc3c1C2c1ccccc1 (configuration not stated) here class 1

====

Target: Neuropeptide S receptor (Homo sapiens)
Assay: Confirmation Concentration-Response Assay for Antagonists of the Neuropeptide S Receptor: cAMP Signal Transduction
Details: CHO-NPSR cells, cAMP TR-FRET, antagonist mode; series mostly up to 22.3 µM
Records with an inconclusive call do not appear. Activity calls are given as the source filed them. Calls come from the whole dose curve; as a rule, active = well fitted inhibition curve with a large enough effect in the main read-out, with a control signal flat; inconclusive = small, poorly fitted or top-dose-only effect, or a change in a side signal; inactive = flat fitted curve, though single readings scatter.
Parameter call: string, one of active, inactive

Field: example entries. Status: answers known.
molecule	assigned-label
CN(C)c1ccc(N=Cc2ccco2)cc1	inactive
O=C(O)CCCCCNc1nc(=S)[nH]c2ccccc12	inactive
Cc1ccc2nc3ccc(N4CCCCCCC4)nn3c(=O)c2c1	inactive
C/C(=N\Nc1ncc(Cl)cc1Cl)c1ccccn1	active

For "N=C1c2ccccc2CN1c1ccc(N2CCOCC2)c(S(=O)(=O)Nc2ccc(Cl)cc2)c1" , what call appears in the results of this test? active

Assay result, entry CCC(C)n1c(=O)c(C(=O)Nc2ccccc2S(N)(=O)=O)c(O)c2ccccc21 (stereo not drawn) — outcome? inactive

Tell me the recorded outcome of this test for "c1ccc(-c2ccc(-c3nc(-c4cccnc4)no3)cc2)cc1" . inactive

Record lookup: outcome of this test for CCOc1ccc(N2C(=O)CC(NCCc3ccncc3)C2=O)cc1 (stereo not drawn) ? inactive

Record lookup: outcome of this test for "c1cncc(-c2nc(-c3ccco3)cs2)c1" ? inactive

What is the recorded call for this molecule in the test? "Cc1ccc(Cn2cc(SCC(=O)Nc3nccs3)c3ccccc32)cc1" inactive

For CC1(C)Cc2c(c(N3CCOCC3)nc3sc4c(NCC5CCCO5)nnnc4c23)CS1 (stereo not drawn) , what call appears in the results of this test? inactive

====

Molecular target: Neuropeptide S receptor (Homo sapiens) (UniProt Q6W5P4)
Sequence (Q6W5P4 whole entry, looked up): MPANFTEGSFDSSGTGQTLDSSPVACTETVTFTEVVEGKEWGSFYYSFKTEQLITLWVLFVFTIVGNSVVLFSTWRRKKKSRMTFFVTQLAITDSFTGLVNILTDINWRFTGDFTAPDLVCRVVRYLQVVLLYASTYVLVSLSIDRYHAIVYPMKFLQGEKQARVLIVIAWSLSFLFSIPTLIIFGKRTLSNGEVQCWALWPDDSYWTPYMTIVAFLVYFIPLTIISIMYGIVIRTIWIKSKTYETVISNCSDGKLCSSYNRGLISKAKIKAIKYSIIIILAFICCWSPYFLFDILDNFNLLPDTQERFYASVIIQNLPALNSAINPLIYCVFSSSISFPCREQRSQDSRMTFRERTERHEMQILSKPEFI
Experiment: Confirmation Concentration-Response Assay for Antagonists of the Neuropeptide S Receptor: cAMP Signal Transduction
Details: CHO-NPSR cells, cAMP TR-FRET, antagonist mode; series mostly up to 22.3 µM
Description: NIH Chemical Genomics Center [NCGC] NIH Molecular Libraries Probe Production centers Network [MLPCN] […] This change in intracellular cAMP level can be detected by a homogeneous LANCE cAMP assay based on the TR-FRET (time resolved fluorescence resonance energy transfer) between a europium-labeled cAMP tracer complex and a cAMP-specific antibody labeled with Alexa Fluor 647. […] Both emission signals from the FRET donor (620 nm) and the acceptor (665 nm) can be detected by a plate reader in the TRF mode. […]
Records with an inconclusive call do not appear. Active and inactive are the calls of the source. Calls follow the shape of the dose curve; as a rule, active = well fitted inhibition curve with a large enough effect in the main read-out, with a control signal flat; inconclusive = small, poorly fitted or top-dose-only effect, or a change in a side signal; inactive = flat fitted curve, though single readings scatter.
Lab note: assign the record to one of yes (1) for active, no (0) for inactive

Query: recorded result category for "CC(=O)c1c(C(C)=O)c(C)n(NC(=O)c2cccnc2)c1C" in this test no (0)

Recorded call for "O=C(/C=C/c1ccco1)NC(=S)Nc1nc(-c2ccc3ccccc3c2)cs1" ? yes (1)

Check the results log: what was the call for "CC(C)Cc1nc(N2CCN(C(=O)c3ccccc3)CC2)c(C#N)c2c1CCC2" ? no (0)

How did this test come out for "C(=N\Nc1nc(-c2ccccn2)nc2ccccc12)/c1ccccc1" ? no (0)

Kindly provide the recorded test outcome for the following molecule: "O=C(N1CCOCC1)C1(c2ccc(Cl)cc2)CCCC1" no (0)

Outcome? "COCCCn1cnc2c(c1=O)c1nc3ccccc3nc1n2CCc1ccccc1" no (0)

Outcome logged for COc1ccc(/C=C2\CCCC3C2=NN(C(=O)c2ccco2)C3c2ccc(OC)c(OC)c2)cc1OC (stereo not given) in this assay: no (0)

Please state the recorded outcome for this molecule: "CCC(=O)O[C@]1(C(=O)CCl)[C@@H](C)C[C@H]2[C@@H]3CCC4=CC(=O)C=C[C@]4(C)[C@@]3(F)[C@@H](O)C[C@@]21C" yes (1)

Can you look up the reported call for "Cc1cc(C)n(-c2nc(Nc3ccccc3C(F)(F)F)nc(-n3nc(C)cc3C)n2)n1" for me? yes (1)

Outcome logged for "N#CC(C#N)=c1ccc2c(c1)NC1(CCCCC1)N=2" in this assay: no (0)

====

Biological target: Neuropeptide S receptor (Homo sapiens) (UniProt Q6W5P4)
Assay: Confirmation Concentration-Response Assay for Antagonists of the Neuropeptide S Receptor: cAMP Signal Transduction; note: potency is the fitted concentration of half-maximal effect
Details: CHO-NPSR cells, cAMP TR-FRET, antagonist mode; series mostly up to 22.3 µM
Results filed as inconclusive are left out. Active and inactive are the calls of the source. Calls come from the whole dose curve; as a rule, active = well fitted inhibition curve with a large enough effect in the main read-out, with a control signal flat; inconclusive = small, poorly fitted or top-dose-only effect, or a change in a side signal; inactive = flat fitted curve, though single readings scatter.
reported-property: Potency

Recorded results for 5 compounds are shown here.
O=C(CSc1n[nH]c(-c2cccnc2)n1)Nc1ccnc2ccccc12 inactive
Cc1nn(C(=O)c2cccs2)c(N)c1-c1ccccc1 inactive
COc1ccc2nc(NC(=S)N(C)C)sc2c1 inactive
C=C1C(=O)C=C2CN(C(=O)c3ccccc3)[C@@](Cc3ccc(F)cc3)(C(=O)OC)[C@@H]12 3.98 µM (active)
C=CCOc1c(Cl)cc(CNc2ccc(N(C)C)cc2)cc1OC inactive

Here is another compound to look at.
API: value(readout= Potency, system= Neuropeptide S receptor (Homo sapiens) (UniProt Q6W5P4), query= "Cc1nn(C)cc1/C=N/NC(=S)Nc1ccccc1" ) inactive

====

Target: Neuropeptide S receptor (Homo sapiens)
Assay: Confirmation Concentration-Response Assay for Antagonists of the Neuropeptide S Receptor: cAMP Signal Transduction
Details: CHO-NPSR cells, cAMP TR-FRET, antagonist mode; series mostly up to 22.3 µM
Records with an inconclusive call do not appear. Calls of active or inactive are those of the source. Calls come from the whole dose curve; as a rule, active = well fitted inhibition curve with a large enough effect in the main read-out, with a control signal flat; inconclusive = small, poorly fitted or top-dose-only effect, or a change in a side signal; inactive = flat fitted curve, though single readings scatter.
Entry note: the call must match one of 1 = active, -1 = inactive

# count of solved cases: 2
Cc1ccc(-c2ccc(/C=C3\C(=O)ON=C3c3ccccc3)o2)c([N+](=O)[O-])c1 1
CCOC(=O)c1cnc(Nc2nc3ccccc3o2)nc1CSC(=S)N(CC)CC -1

Turning now to a further compound:
Given "O=S1(=O)Nc2c(ccc3cccnc23)-c2ccccc21" , state the outcome it received in this test. 1

====

Target: Neuropeptide S receptor (Homo sapiens)
Assay: Confirmation Concentration-Response Assay for Antagonists of the Neuropeptide S Receptor: cAMP Signal Transduction
Settings: CHO-NPSR cells, cAMP TR-FRET, antagonist mode; series mostly up to 22.3 µM
Inconclusive results are not listed. Activity calls are given as the source filed them. Calls come from the whole dose curve; as a rule, active = well fitted inhibition curve with a large enough effect in the main read-out, with a control signal flat; inconclusive = small, poorly fitted or top-dose-only effect, or a change in a side signal; inactive = flat fitted curve, though single readings scatter.
Thanks in advance; please answer with one of these: active, inactive

molecule	assigned-label
CCOC(=O)CCC(=O)Nc1ncnc2c1C(c1ccccc1)c1c(ccc3ccccc13)O2 (stereo unspecified)	active
CCCCCN1C=CC=C/C1=C\C=C(C#N)C#N	inactive
C=CCn1c(SCCN2C(=O)c3ccccc3C2=O)nc2scc(-c3ccccc3)c2c1=O	inactive
CCC(c1nnnn1C1CCCC1)N1CCN(c2ccccc2)CC1 (stereo unspecified)	inactive

I'd appreciate the recorded outcome for "COc1ccc(/C=N/n2cncn2)cc1Cn1cc([N+](=O)[O-])cn1" from this test. inactive

State the result this test recorded for N=c1c2c(ncn1-c1ccccc1)Oc1ccc3ccccc3c1C2c1ccc2c(c1)CCO2 (stereo unspecified) . active

Dear colleague, could you share the recorded outcome for "Cn1c(COc2ccccc2)nnc1SCc1cc(=O)[nH]c2ccccc12" when you have a moment? inactive

====

Molecular target: Neuropeptide S receptor (Homo sapiens) (UniProt Q6W5P4)
Assay: Confirmation Concentration-Response Assay for Antagonists of the Neuropeptide S Receptor: cAMP Signal Transduction; note: potency is the fitted concentration of half-maximal effect
Details: CHO-NPSR cells, cAMP TR-FRET, antagonist mode; series mostly up to 22.3 µM
Records with an inconclusive call do not appear. Active and inactive are the calls of the source. The call rests on the fitted dose curve; in most records, active means well fitted inhibition curve with a large enough effect in the main read-out, with a control signal flat; inconclusive means small, poorly fitted or top-dose-only effect, or a change in a side signal; inactive means flat fitted curve, though single readings scatter.
reported-property: Potency

Please review the following examples before continuing.
compound	system-name	Potency
Cc1nc(NC(=S)Nc2ccccc2)sc1C	Neuropeptide S receptor (Homo sapiens) (UniProt Q6W5P4)	inactive
CCOC(=O)CC(=O)Nc1ncnc2c1C(c1ccccc1)c1c(ccc3ccccc13)O2 (stereo unspecified)	Neuropeptide S receptor (Homo sapiens) (UniProt Q6W5P4)	0.794 µM (active)
Cn1c(C(=O)NCCN2CCc3ccccc3C2)cc2c(=O)[nH]c3ccccc3c21	Neuropeptide S receptor (Homo sapiens) (UniProt Q6W5P4)	inactive
CS(=O)(=O)c1nc(-c2ccccc2)cc(C(F)(F)F)n1	Neuropeptide S receptor (Homo sapiens) (UniProt Q6W5P4)	7.94 µM (active)
O=c1cc(CNCCCO)c2ccccc2[nH]1	Neuropeptide S receptor (Homo sapiens) (UniProt Q6W5P4)	inactive
COc1ccc(CCNC(=O)CC(c2ccccc2)c2cccc(C)c2O)cc1OC (stereo unspecified)	Neuropeptide S receptor (Homo sapiens) (UniProt Q6W5P4)	inactive

Query (compound): N=c1c2c(ccn1CCCc1ccccc1)Oc1ccc3ccccc3c1C2c1ccccc1 (stereo unspecified) ; field requested: Potency 1.58 µM (active)

What value of Potency has been reported for the following compound? "C(=C\c1ccccc1)/C=N/N1CCN(c2ccccn2)CC1" inactive

Using the record for CCOC(=O)CCCC(=O)Nc1ncnc2c1C(c1ccccc1)c1c(ccc3ccccc13)O2 (stereo unspecified) , report its Potency. 2 µM (active)

Quick one: Potency for "Cc1cccc(N2CCN(C(=O)c3ccc(CNc4c(N5CCC(C)CC5)c(=O)c4=O)cc3)CC2)c1C" ? inactive

Can you look up the measured Potency of "COc1ccc(N2C3=C(CC4=C2CC(C)(C)CC4=O)C(=O)CC(C)(C)C3)cc1" for me? inactive

For the compound "CCCCOc1ccc(OCCCN2CCOCC2)cc1" , what Potency is on record? inactive

// query Potency value for entry "O=[N+]([O-])c1ccc(N=Nc2ccc(O)cc2O)cc1" inactive
